- procedure.text: Cytotoxicity against human HepG2 cells after 24 hrs by MTT assay
- Assay type: cell-based
Entries and their CC50 at 24 h
Entry rule: numbers only, all in µM.

CCN(CC)Cc1cn(-c2ccnc3cc(Cl)ccc23)nn1; 1850
OC1CCN(Cc2cn(-c3ccnc4cc(Cl)ccc34)nn2)CC1; 930
O=C(OCc1cn(-c2ccnc3cc(Cl)ccc23)nn1)c1ccc(Cl)cc1; 484
OCCCc1cn(-c2ccnc3cc(Cl)ccc23)nn1; 151
CN(C)Cc1cn(-c2ccnc3cc(Cl)ccc23)nn1; 1850

Name the recorded CC50 at 24 h of the compound listed here: Clc1ccc2c(-n3cc(-c4ccccc4)nn3)ccnc2c1
574

Supply measured CC50 at 24 h of Cc1ccc(-c2cn(-c3ccnc4cc(Cl)ccc34)nn2)cc1 in your reply.
352

Tell me CC50 at 24 h reported for O=C(OCCCc1cn(-c2ccnc3cc(Cl)ccc23)nn1)c1ccccc1
1200

====

- Tested on: Plasmodium falciparum
- procedure.text: Antimalarial activity against chloroquine-resistant and mefloquine-sensitive Plasmodium falciparum W2 infected in human erythrocytes after 48 hrs by HRP2-ELISA
- Type: functional, organism-based
- setup.conditions: W2, 48 h, read-out: pIC50 (converted)
Each item that follows carries a reported IC50.
Hi! Could you send only the number? It should be in µM, unit omitted.

These solved cases illustrate the format of a correct answer.
OCCCc1cn(-c2ccnc3cc(Cl)ccc23)nn1; 10
O=C(OCc1cn(-c2ccnc3cc(Cl)ccc23)nn1)c1ccc(Cl)cc1; 22.9
OC1CCN(Cc2cn(-c3ccnc4cc(Cl)ccc34)nn2)CC1; 40.7
CN(C)c1ccc(-c2cn(-c3ccnc4cc(Cl)ccc34)nn2)cc1; 39.8

Provide measured IC50 value, entry: CN(C)Cc1cn(-c2ccnc3cc(Cl)ccc23)nn1
26.9

====

- procedure.text: Cytotoxicity against human HepG2 cells after 24 hrs by MTT assay
- Type: cell-based
property: CC50 at 24 h

Quote CC50 at 24 h reported for CN(C)c1ccc(-c2cn(-c3ccnc4cc(Cl)ccc34)nn2)cc1 please.
> 2860 µM

Input CC(C)(O)c1cn(-c2ccnc3cc(Cl)ccc23)nn1 , output reported CC50 at 24 h.
442 µM

Find the measured CC50 at 24 h of COc1ccc(C(=O)OCCCc2cn(-c3ccnc4cc(Cl)ccc34)nn2)cc1 and report it.
347 µM

Using the record for CC(C)(C)c1ccc(C(=O)OCCCc2cn(-c3ccnc4cc(Cl)ccc34)nn2)cc1 , state its measured CC50 at 24 h.
> 2230 µM

// Input: COc1ccc(C(=O)OCc2cn(-c3ccnc4cc(Cl)ccc34)nn2)cc1 . Output its CC50 at 24 h only.
303 µM

====

- procedure.text: Cytotoxicity against human HepG2 cells after 24 hrs by MTT assay
- Format: cell-based
Known CC50 at 24 h of a selection of molecules

COc1ccc2cc(-c3cn(-c4ccnc5cc(Cl)ccc45)nn3)ccc2c1; > 2.59 mM
CCc1ccc(C(=O)OCCCc2cn(-c3ccnc4cc(Cl)ccc34)nn2)cc1; > 2.55 mM
O=C(OCc1cn(-c2ccnc3cc(Cl)ccc23)nn1)c1ccccc1; > 2.75 mM
COc1c(F)c(F)cc(C(=O)OCc2cn(-c3ccnc4cc(Cl)ccc34)nn2)c1F; > 2.23 mM
O=C(OCCCc1cn(-c2ccnc3cc(Cl)ccc23)nn1)c1ccc(C(F)(F)F)cc1; > 2.17 mM
CCc1ccccc1C(=O)OCc1cn(-c2ccnc3cc(Cl)ccc23)nn1; > 2.55 mM

Check the records and state CC50 at 24 h for CCc1ccc(C(=O)OCc2cn(-c3ccnc4cc(Cl)ccc34)nn2)cc1
> 2.55 mM

Supply CC50 at 24 h value. Item: Clc1ccc2c(-n3cc(CN4CCOCC4)nn3)ccnc2c1
> 3.04 mM

Report CC50 at 24 h for Fc1ccc(-c2cn(-c3ccnc4cc(Cl)ccc34)nn2)cc1
> 3.09 mM

Give the reported value of CC50 at 24 h for this record: Cc1ccc(C(=O)OCCCc2cn(-c3ccnc4cc(Cl)ccc34)nn2)cc1
> 2.46 mM

====

- procedure.text: Cytotoxicity against human HepG2 cells after 24 hrs by MTT assay
- Type: cell-based
The entries below come with measured CC50 at 24 h values attached.

Below are worked cases with known answers.
CCN(CC)CCCC(C)Nc1ccnc2cc(Cl)ccc12 (stereo not given); 810 µM
O=C(OCc1cn(-c2ccnc3cc(Cl)ccc23)nn1)c1ccc(C(F)(F)F)cc1; 1070 µM
Clc1ccc2c(-n3cc(CN4CCCCC4)nn3)ccnc2c1; 1110 µM

Note down CC50 at 24 h recorded for Clc1ccc2c(-n3cc(C4CCCCC4)nn3)ccnc2c1
> 3200 µM

Given the compound CC(C)(C)c1ccc(C(=O)OCc2cn(-c3ccnc4cc(Cl)ccc34)nn2)cc1 , write its reported CC50 at 24 h.
> 2380 µM
